- System: OCI-LY10 cells
- protocolDescription: Cell proliferation assay (MTS) in OCI-LY10 cells
- Assay type: cell-based
- conditionInfo: Homo sapiens; inhibition of OCI-LY10 cells proliferation, 72 h incubation, MTS, absorbance at 490 nm; read-out: OCI-LY10 IC50
- Experimental: MTS testing kit was purchased from Promega (Madison, Wis., USA). The RPMI-1640, Fetal bovine serum and Penicillin-Streptomycin were purchased from BI (Biological Industries, Beit Haemek, Israel). Dimethyl sulfoxide (DMSO) was purchased from Sigma (St. Louis., Mo., USA). […] In this assay, inhibition of BTK was detected by the inhibition of OCI-LY10 cells proliferation. […] The absorbance was measured by a microplate reader at 490 nm. IC50 was calculated using GraphPad Prism 5.0 software. […]
Kindly supply the reported pIC50 values for the records listed here.
Value format note: pIC50 is -log10 of concentration (mol/L); just state the number.

Tested on OCI-LY10 cells: COc1ccc(F)cc1C(=O)NCc1ccc(-c2nn(C3(CF)CC3)c3c(=O)[nH]nc(N)c23)cc1 . Observed pIC50: 8.52

// compound COc1ccc(F)cc1C(=O)NCc1ccc(-c2cn(C3CCCC3(C)O)c3c(=O)[nH]nc(N)c23)cc1 (centres unmarked) , assay OCI-LY10 cells, pIC50 value: 7.46

So the reported pIC50 for COc1ccc(F)cc1C(=O)NCc1ccc(-n2cc(C3CCCC3)c3ncnc(N)c32)cc1 , on OCI-LY10 cells, turned out to be 9.00

For the compound COc1ccc(F)cc1C(=O)NCc1ccc(-c2cn(C3CC(F)(F)C3)c3c(=O)[nH]nc(N)c23)cc1 , the measured pIC50 on OCI-LY10 cells was 9.00

The compound COc1ccc(F)cc1C(=O)NCc1ccc(-c2nn(C(C)C(F)F)c3c(=O)[nH]nc(N)c23)cc1 (centres unmarked) , tested on OCI-LY10 cells, showed pIC50 of 9.00

Considering COc1ccc(F)cc1C(=O)NCc1ccc(-c2nn(C3(C)CC3)c3c(=O)[nH]nc(N)c23)cc1 , its pIC50 with OCI-LY10 cells was recorded as 9.00

Log: OCI-LY10 cells, compound COc1ccc(F)cc1C(=O)NCc1ccc(-c2nn([C@H]3CCC[C@@H]3F)c3c(=O)[nH]nc(N)c23)cc1 , pIC50 = 9.00

Field pIC50 (OCI-LY10 cells), entry COc1ccc(F)cc1C(=O)NCc1ccc(-n2nc(C3CC(F)(F)C3)c3c(=O)[nH]nc(N)c32)cc1 : 7.64

---

- experimentalTarget: BTK (C481S) (Homo sapiens, UniProt Q06187, C481S)
- Sequence (Q06187 whole entry C481S): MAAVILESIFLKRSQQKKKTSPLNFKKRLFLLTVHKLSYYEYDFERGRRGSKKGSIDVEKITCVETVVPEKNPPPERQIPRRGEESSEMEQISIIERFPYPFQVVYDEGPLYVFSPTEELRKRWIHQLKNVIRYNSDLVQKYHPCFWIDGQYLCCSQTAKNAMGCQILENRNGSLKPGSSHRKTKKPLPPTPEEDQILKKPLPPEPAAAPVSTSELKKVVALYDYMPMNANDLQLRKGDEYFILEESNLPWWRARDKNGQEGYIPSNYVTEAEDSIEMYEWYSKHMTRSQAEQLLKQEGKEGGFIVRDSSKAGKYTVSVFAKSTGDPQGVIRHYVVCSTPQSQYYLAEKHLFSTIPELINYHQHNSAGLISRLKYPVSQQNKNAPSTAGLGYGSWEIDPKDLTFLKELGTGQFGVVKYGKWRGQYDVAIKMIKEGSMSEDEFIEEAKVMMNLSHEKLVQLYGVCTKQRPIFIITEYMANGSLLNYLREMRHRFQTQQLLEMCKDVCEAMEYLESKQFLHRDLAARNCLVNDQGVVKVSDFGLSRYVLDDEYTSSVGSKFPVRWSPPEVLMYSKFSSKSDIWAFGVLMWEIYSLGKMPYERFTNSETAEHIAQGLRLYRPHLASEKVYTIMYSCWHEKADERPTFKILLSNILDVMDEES
- protocolDescription: Kinase assay of BTK (C481S), [33P]-ATP filter-binding, Reaction Biology Corporation
- conditionInfo: 6 nM BTK (C481S), 0.2 mg/ml pEY substrate, 10 μM ATP, 20 min preincubation, 120 min reaction at room temperature
What pIC50 was measured for each of the following?
Note on units: pIC50 is unitless, being -log10 of a concentration expressed in mol/L.

For COc1ccc(F)cc1C(=O)NCc1ccc(-c2nn([C@H]3CCC[C@H]3F)c3c(=O)[nH]nc(N)c23)cc1 [Example 81] the compound record lists pIC50 as 9.04

Summary for this compound, COc1ccccc1C(=O)NCc1ccc(-c2cn(C3CCCC3)c3c(=O)[nH]nc(N)c23)cc1 [Example 4] : pIC50 is 8.19

For this compound ( COc1ccccc1C(=O)NCc1ccc(-c2nc(C3CCCC3)n3ncnc(N)c23)cc1 [Example 6] ), measured pIC50 is 8.11

get_value(item= COc1ccc(F)cc1C(=O)NCc1ccc(-n2cc(C3CCCC3)c3c(=O)[nH]nc(N)c32)cc1 [Example 8] , readout=pIC50) returns 9.35

Kindly note the recorded pIC50 for COc1ccc(F)cc1C(=O)NCc1ccc(-c2cn(C3CCCC3)c3c(=O)[nH]nc(N)c23)cc1 [Example 17] , which is 9.30

Entry COc1ccccc1C(=O)NCc1ccc(-c2nn(C3CCCC3)c3c(=O)[nH]nc(N)c23)cc1 [Example 5] — recorded pIC50 = 8.10

Reported pIC50 of COc1ccccc1C(=O)NCc1ccc(-n2cc(C3CCCC3)c3c(=O)[nH]nc(N)c32)cc1 [Example 1] : 8.30

Entry COc1ccccc1C(=O)NCc1ccc(-n2nc(C3CCCC3)c3c(=O)[nH]nc(N)c32)cc1 [Example 2] — recorded pIC50 = 8.48

Notebook: COc1ccc(F)cc1C(=O)NCc1ccc(-c2nn(C3CCCC3)c3c(=O)[nH]nc(N)c23)cc1 [Example 11] , pIC50 read as 9.30

Looking up COc1ccccc1C(=O)NCc1ccc(-c2nc(C3CCCC3)n3ccnc(N)c23)cc1 [Example 7] , I see its pIC50 listed as 8.52
